Target: Thromboxane A2 (TXA2) synthetase (Equus caballus, UniProt A0A9L0T8T9)
Sequence (A0A9L0T8T9 2-534): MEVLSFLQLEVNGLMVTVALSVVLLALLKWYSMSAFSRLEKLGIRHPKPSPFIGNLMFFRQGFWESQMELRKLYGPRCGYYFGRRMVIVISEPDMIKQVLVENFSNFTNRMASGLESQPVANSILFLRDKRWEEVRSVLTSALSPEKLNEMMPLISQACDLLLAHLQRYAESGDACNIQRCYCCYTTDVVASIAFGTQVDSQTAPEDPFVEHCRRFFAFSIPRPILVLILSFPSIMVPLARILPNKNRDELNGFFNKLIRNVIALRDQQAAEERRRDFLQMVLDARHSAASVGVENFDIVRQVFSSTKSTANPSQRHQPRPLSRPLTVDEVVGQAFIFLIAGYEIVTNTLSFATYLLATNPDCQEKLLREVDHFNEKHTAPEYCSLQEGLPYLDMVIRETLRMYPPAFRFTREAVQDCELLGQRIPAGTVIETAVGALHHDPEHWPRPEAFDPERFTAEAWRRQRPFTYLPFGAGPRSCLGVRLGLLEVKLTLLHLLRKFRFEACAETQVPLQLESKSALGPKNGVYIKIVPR
Test: Inhibition of Thromboxane A2 (TXA2) synthetase (horse platelet microsome)
Assay type: biochemical
Conditions: 10^-7 M; read-out: Inhibition of Thromboxane A2 (TXA2) synthetase
Protocol: Inhibition of Thromboxane A2 (TXA2) synthetase As a preparation of TXA2 synthetase, horse platelet microsome treated with indomethacin (indomethacin-treated horse platelet microsome: IPM) according to the method of Needleman et al. (Science 193 163, 1979) was used. […] The rate of inhibition (%) of TXA2 synthetase was determined from the difference in TXB2 productivity between the untreated group and the treated group. […]
measured-endpoint: inhibition at 0.1 µM (%)

molecule: CC1=C(C)C(=O)C(C(C)c2cccnc2)=C(C)C1=O (stereo not shown) [Compound No. 1]
study-target: Thromboxane A2 (TXA2) synthetase (Equus caballus, UniProt A0A9L0T8T9)
readout-value: 37
--
molecule: CC1=C(C)C(=O)C(C(CCCCC(=O)O)c2cccnc2)=C(C)C1=O (stereo not shown) [compound 10]
study-target: Thromboxane A2 (TXA2) synthetase (Equus caballus, UniProt A0A9L0T8T9)
readout-value: 24
--
molecule: CC(=Cc1ccc(C(C2=C(C)C(=O)C(C)=C(C)C2=O)c2cccnc2)cc1)C(=O)O (stereo not shown) [Compound No. 5]
study-target: Thromboxane A2 (TXA2) synthetase (Equus caballus, UniProt A0A9L0T8T9)
readout-value: 7
--
molecule: CC1=C(C)C(=O)C(C(CCCCO)c2cccnc2)=C(C)C1=O (stereo not shown) [compound 8]
study-target: Thromboxane A2 (TXA2) synthetase (Equus caballus, UniProt A0A9L0T8T9)
readout-value: 6

====

# inhibition at 0.1 µM per entry
molecular target: 5-lipoxygenase (Rattus norvegicus, UniProt P12527); construct: endogenous in cells; host or cells: RBL-1 cells (rat basophilic leukemia); test: Inhibition of 5-lipoxygenase (production of 5-HETE in RBL-1 cells); assay type: cell-based, rat (RBL-1, rat basophilic leukemia cells); details: 10^-7 M
Sequence (P12527 whole entry): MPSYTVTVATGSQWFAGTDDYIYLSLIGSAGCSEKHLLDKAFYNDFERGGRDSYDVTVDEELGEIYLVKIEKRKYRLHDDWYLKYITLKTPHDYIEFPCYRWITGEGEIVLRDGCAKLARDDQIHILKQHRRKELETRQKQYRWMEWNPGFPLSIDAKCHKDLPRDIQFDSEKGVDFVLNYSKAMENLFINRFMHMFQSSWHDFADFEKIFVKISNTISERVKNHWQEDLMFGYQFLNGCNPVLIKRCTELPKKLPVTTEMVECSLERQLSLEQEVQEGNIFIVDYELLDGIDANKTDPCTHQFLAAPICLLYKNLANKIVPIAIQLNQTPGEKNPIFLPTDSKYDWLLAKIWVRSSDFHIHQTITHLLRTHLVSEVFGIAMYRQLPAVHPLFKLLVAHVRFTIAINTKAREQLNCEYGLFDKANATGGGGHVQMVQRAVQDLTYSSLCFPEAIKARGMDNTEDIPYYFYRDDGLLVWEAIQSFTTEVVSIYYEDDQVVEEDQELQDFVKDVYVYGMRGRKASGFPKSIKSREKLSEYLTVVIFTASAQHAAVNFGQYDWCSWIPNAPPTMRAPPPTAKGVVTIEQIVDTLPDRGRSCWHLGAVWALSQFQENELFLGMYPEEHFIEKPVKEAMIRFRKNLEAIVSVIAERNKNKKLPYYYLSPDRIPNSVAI
measured-endpoint: inhibition at 0.1 µM (%)

compound: CC1=C(C)C(=O)C(C(CCCCCO)c2cccnc2)=C(C)C1=O (stereo not drawn)
measured-endpoint: inhibition at 0.1 µM
readout-value: 61

compound: CCCCCCC(C1=C(C)C(=O)C(C)=C(C)C1=O)c1cccnc1 (stereo not drawn)
measured-endpoint: inhibition at 0.1 µM
readout-value: 77

compound: CC(=O)OCCCCCC(C1=C(C)C(=O)C(C)=C(C)C1=O)c1cccnc1 (stereo not drawn)
measured-endpoint: inhibition at 0.1 µM
readout-value: 67

FYI, the data here is from patent US4985447A.
